Test system: HCV genotype 1a replicon
Assay: Biological Example 3: antiviral combination studies with Compound 4 (MacSynergy II)
Settings: in combination with Compound 4

| MOLECULE | UNIT_DESCRIPTOR | Synergy Volume |
| --- | --- | --- |
| COC(=O)N[C@H](C(=O)N1CC2(CC2)C[C@H]1c1ncc(-c2ccc3c(c2)C(F)(F)c2cc(-c4ccc5nc([C@@H]6[C@H]7CC[C@H](C7)N6C(=O)[C@@H](NC(=O)OC)C(C)C)[nH]c5c4)ccc2-3)[nH]1)C(C)C [Compound 6] | nM^2% | 19 |
| COc1ccc2c(O[C@@H]3C[C@H]4C(=O)N[C@]5(P(=O)(O)Cc6c(F)cccc6F)C[C@H]5CCCCCCC[C@H](NC(=O)OC5CCCC5)C(=O)N4C3)cc(-c3csc(NC(C)C)n3)nc2c1Cl [Compound 2] | nM^2% | 22 |
| NC(=O)c1ncn([C@@H]2O[C@H](CO)[C@@H](O)[C@H]2O)n1 [Ribavirin, reference compound] | nM^2% | 1 |
| CC1=CC[C@H](C(=O)N(c2cc(C#CC(C)(C)C)sc2C(=O)O)[C@H]2CC[C@](O)(CO[C@H]3CCOC3)CC2)CC1 [Compound 5] | nM^2% | 26 |
| Fc1ccccc1-c1nc2ccn(Cc3ccc(-c4ccc(C(F)(F)F)cc4C(F)(F)F)nn3)cc-2n1 [Compound 1] | nM^2% | 34 |
| CC[C@@H]1C[C@]1(NC(=O)[C@@H]1C[C@@H](Oc2cc(-c3csc(NC(C)C)n3)nc3c(Cl)c(OCCN4CCOCC4)ccc23)CC1C(=O)[C@@H](NC(=O)O[C@@H]1C[C@@H]2C[C@@H]2C1)C(C)(C)C)C(=O)O (stereo partly drawn) [Compound 3] | nM^2% | 26 |

Data provenance: patent US9452154B2
